Origin of values: patent US20210130452A1

# target: human IL-17A (human, UniProt Q16552 24-155, biotinylated with Sulfo-NHS-LC-Biotin in the AlphaScreen assays only)
# Sequence (Q16552 other isoform, or with tags, fused parts or gaps): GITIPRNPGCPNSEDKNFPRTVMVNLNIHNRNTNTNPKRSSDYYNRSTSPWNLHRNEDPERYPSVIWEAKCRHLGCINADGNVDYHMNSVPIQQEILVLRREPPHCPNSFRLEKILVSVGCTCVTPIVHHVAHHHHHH
# assay.overview: cell-based or functional assay
endpoint.label: IL-17A-induced IL-6 production in HT-1080 cells, Emax (%)

[
  {
    "binder": "02E03 (VHH, Class 1 Nanobody (anti-IL-17A); not shown: c-myc, His6 tag) VHH: EVQLVESGGGLVQPGGSLRLSCAASGFTFSSYAMSWARQAPGEGLEWVSDINSGGTRTTYADSVKGRFTISRDNAKNTLYLQMNSLKPEDTAVYVCAKLSVFRSQLGGKYYGGDYENRGQGTQVTVSS",
    "result.value": 99.3
  },
  {
    "binder": "01A01 (VHH, Class 4 Nanobody (cross-reactive: anti-IL-17A, IL-17F and IL-17A/F); not shown: c-myc, His6 tag) VHH: EVQLVESGGGLVQAGGSLRLSCAASGFTFDDYDIGWFRQAPGKEREGVSCFTSSDGRTFYADSVKGRFTVSADNAKNTVYLQMNSLEPEDTAVYFCAAVNTFDESAYAAFACYDVVRWGQGTQVTVSS",
    "result.value": 104
  },
  {
    "binder": "02A08 (VHH, Class 2 Nanobody (anti-IL-17A and IL-17A/F); not shown: c-myc, His6 tag) VHH: EVQLVESGGGVVQPGGSLRLSCADSERSFSFNAMGWFRQAPGKEREFVAAISATGDDTYYADSVKGRFAISRDTARNTVYLQMNSLKPEDTAVYYCGARVNFDGTVSYTNDYAYWGQGTQVTVSS",
    "result.value": 103
  },
  {
    "binder": "13B03 (VHH, Class 4 Nanobody (cross-reactive: anti-IL-17A, IL-17F and IL-17A/F); also called IL17MS13B03; not shown: c-myc, His6 tag) VHH: EVQLVESGGGSVQAGDSLRLSCAASGRANSINWFGWFRQTPGKEREFVAGIRWSDAYTEYANSVKGRFTISRDNAKNTVDLQMDSLKPEDTAVYYCVLDLSTVRYWGQGTQVTVSS",
    "result.value": 101
  },
  {
    "binder": "18B05 (VHH, Class 4 Nanobody (cross-reactive: anti-IL-17A, IL-17F and IL-17A/F); not shown: c-myc, His6 tag) VHH: EVQLVKSGGGLVQPGGSLRLSCAASGGTFSLFAMGWFREAPGKEREFVAAIRWSDGSSYYADSVKGRFTISRDNAKNAVHLQSNSLKSEDTAVYYCYADVQGGLHRYWGQGTQVTVSS",
    "result.value": 104
  },
  {
    "binder": "03E05 (VHH, Class 1 Nanobody (anti-IL-17A); not shown: c-myc, His6 tag) VHH: EVQLVESGGGLVQAGGSLRLSCAASGVTFDDYSIGWFRQAPGKEREGVSCISSSDGIPYYSDFVKGRFTTSIDNAKNTVYLQMNSLKPEDTAVYYCAAGFGRLCAEFDSWGQGTQVTVSS",
    "result.value": 100
  }
]
